Below: a set of entries, each annotated with reported pKi.
Target: Proteasome Macropain subunit PRE2 (Saccharomyces cerevisiae S288c, UniProt P30656)
Sequence (P30656 whole entry): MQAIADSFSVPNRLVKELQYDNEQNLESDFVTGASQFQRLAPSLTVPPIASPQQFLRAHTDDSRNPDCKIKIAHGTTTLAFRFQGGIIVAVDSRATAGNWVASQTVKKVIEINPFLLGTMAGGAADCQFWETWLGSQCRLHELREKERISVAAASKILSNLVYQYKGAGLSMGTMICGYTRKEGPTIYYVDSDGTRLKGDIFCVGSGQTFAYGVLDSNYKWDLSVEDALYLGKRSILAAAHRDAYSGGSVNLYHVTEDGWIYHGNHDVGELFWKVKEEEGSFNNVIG
Assay: Inhibition of chymotrypsin like activity of yeast 20S proteasome
pKi: −log10 of the molar value. Residues, ends and D or L forms follow the SMILES beside them.

Q. Respond only with pKi recorded for CCCCCCCCCCCC(=O)N[C@H](C(=O)N[C@H](C(=O)N[C@H](C(=O)N[C@@H](Cc1ccccc1)C(=O)N[C@@H](CC(=O)O)C(=O)N[C@@H](Cc1ccc(O)cc1)C(=O)O)[C@@H](C)O)[C@@H](C)CC)[C@@H](C)O (HELM PEPTIDE1{[CCCCCCCCCCCC(=O)[*:2]].T.I.T.F.D.Y}$$$$V2.0)
A. < 4.10

Q. Respond only with pKi recorded for CCCCCCCCCCCC(=O)N[C@H](C(=O)N[C@H](C(=O)N[C@H](C(=O)N[C@@H](Cc1ccc(O)cc1)C(=O)N[C@@H](CCCCN)C(=O)N[C@@H](Cc1ccccc1)C(=O)O)[C@@H](C)O)C(C)C)[C@@H](C)O (HELM PEPTIDE1{[CCCCCCCCCCCC(=O)[*:2]].T.V.T.Y.K.F}$$$$V2.0)
A. < 4.10

Consider the additional molecule presented here.
Q. Respond only with pKi recorded for CCCCCCCC(=O)N[C@@H](Cc1ccc(O)cc1)C(=O)N[C@@H](CCC(=O)O)C(=O)N[C@@H](CC(C)C)C(=O)O (HELM PEPTIDE1{[CCCCCCCC(=O)[*:2]].Y.E.L}$$$$V2.0)
A. < 4.10
